Reported IC50 values are given for each entry in this list.
MEASURED_ON: recombinant human cannabinoid receptor CB1 (Homo sapiens)
Construct: (cDNA clone) CNR01L000
Sequence (P21554 whole entry): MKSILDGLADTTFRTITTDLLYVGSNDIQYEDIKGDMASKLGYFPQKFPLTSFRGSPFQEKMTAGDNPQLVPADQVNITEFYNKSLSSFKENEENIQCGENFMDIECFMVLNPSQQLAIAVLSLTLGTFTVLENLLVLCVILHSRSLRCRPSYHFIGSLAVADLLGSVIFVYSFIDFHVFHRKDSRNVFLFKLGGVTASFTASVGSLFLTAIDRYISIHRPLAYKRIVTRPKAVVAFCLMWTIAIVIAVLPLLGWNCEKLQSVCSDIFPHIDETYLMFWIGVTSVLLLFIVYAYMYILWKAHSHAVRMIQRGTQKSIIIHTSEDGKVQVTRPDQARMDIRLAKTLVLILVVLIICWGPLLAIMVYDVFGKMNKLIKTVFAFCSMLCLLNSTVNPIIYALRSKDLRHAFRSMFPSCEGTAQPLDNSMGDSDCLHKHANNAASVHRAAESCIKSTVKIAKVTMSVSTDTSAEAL
EXPERIMENTAL_PROTOCOL: Cannabinoid receptor radioligand binding assay, [3H]-CP 55,940 displacement, hCB1
QUANTITY: IC50

COMPOUND: COc1ccc(C(=O)c2cc3cc(C)n(CC4CCOCC4)c3s2)c(F)c1 [Compound 145]
MEASURED_ON: recombinant human cannabinoid receptor CB1 (Homo sapiens)
TEST_RESULT: 1 to 10 µM
//
COMPOUND: COc1ccc(C(=O)c2cc3cc(C)n(CCCNS(C)(=O)=O)c3s2)c(Cl)c1 [Compound 91]
MEASURED_ON: recombinant human cannabinoid receptor CB1 (Homo sapiens)
TEST_RESULT: > 10 µM
//
COMPOUND: COCCn1c(C)cc2cc(C(=O)c3cccc(Cl)c3Cl)sc21 [Compound 21]
MEASURED_ON: recombinant human cannabinoid receptor CB1 (Homo sapiens)
TEST_RESULT: 0.1 to 1 µM
//
COMPOUND: CCn1c(C)cc2cc(C(=O)c3cccc(Cl)c3Cl)sc21 [Compound 19]
MEASURED_ON: recombinant human cannabinoid receptor CB1 (Homo sapiens)
TEST_RESULT: > 10 µM
//
COMPOUND: COc1ccc(C(=O)c2cc3cc(C)n(CC4CCC(F)(F)CC4)c3s2)cn1 [Compound 170]
MEASURED_ON: recombinant human cannabinoid receptor CB1 (Homo sapiens)
TEST_RESULT: < 0.1 µM
//
COMPOUND: COc1ccc(C(=O)c2cc3cc(C)n(CCN4CCC(OC)C4)c3s2)cn1 (stereo not drawn) [Compound 147]
MEASURED_ON: recombinant human cannabinoid receptor CB1 (Homo sapiens)
TEST_RESULT: > 10 µM
//
COMPOUND: CCS(=O)(=O)n1c(C)cc2cc(C(=O)c3cccc(Cl)c3Cl)sc21 [Compound 25]
MEASURED_ON: recombinant human cannabinoid receptor CB1 (Homo sapiens)
TEST_RESULT: 1 to 10 µM
//
COMPOUND: Cc1cc2cc(C(=O)c3ccccc3OC(F)(F)F)sc2n1CCN1CCOCC1 [Compound 15]
MEASURED_ON: recombinant human cannabinoid receptor CB1 (Homo sapiens)
TEST_RESULT: < 0.1 µM
//
COMPOUND: Cc1cc2cc(C(=O)c3cccc(Cl)c3Cl)sc2n1CC(=O)N1CCOCC1 [Compound 22]
MEASURED_ON: recombinant human cannabinoid receptor CB1 (Homo sapiens)
TEST_RESULT: > 10 µM
//
COMPOUND: Cc1cc2cc(C(=O)c3cccc(F)c3F)sc2n1CCN1CCOCC1 [Compound 8]
MEASURED_ON: recombinant human cannabinoid receptor CB1 (Homo sapiens)
TEST_RESULT: 1 to 10 µM
//
COMPOUND: COc1ccc(C(=O)c2cc3cc(C)n(S(=O)(=O)N4CCOCC4)c3s2)cc1 [Compound 53]
MEASURED_ON: recombinant human cannabinoid receptor CB1 (Homo sapiens)
TEST_RESULT: < 0.1 µM
//
COMPOUND: Cc1ccc(C(=O)c2cc3cc(C)n(CCN4CCOCC4)c3s2)c(Cl)c1 [Compound 86]
MEASURED_ON: recombinant human cannabinoid receptor CB1 (Homo sapiens)
TEST_RESULT: 0.1 to 1 µM
//
COMPOUND: COc1ccc(C(=O)c2cc3cc(C)n(CC(OC)OC)c3s2)cn1 [Compound 161]
MEASURED_ON: recombinant human cannabinoid receptor CB1 (Homo sapiens)
TEST_RESULT: 0.1 to 1 µM
//
COMPOUND: Cc1cc2cc(C(=O)c3cc(Cl)ccc3Cl)sc2n1CCN1CCOCC1 [Compound 35]
MEASURED_ON: recombinant human cannabinoid receptor CB1 (Homo sapiens)
TEST_RESULT: 0.1 to 1 µM
//
COMPOUND: Cc1ccc(C(O)c2cc3cc(C)n(CCN4CCOCC4)c3s2)cn1 (stereo not drawn) [Compound 125]
MEASURED_ON: recombinant human cannabinoid receptor CB1 (Homo sapiens)
TEST_RESULT: > 10 µM
//
COMPOUND: COc1ccc(C(=O)c2cc3cc(C)n(CC4CCCCO4)c3s2)cn1 (stereo not drawn) [Compound 173]
MEASURED_ON: recombinant human cannabinoid receptor CB1 (Homo sapiens)
TEST_RESULT: < 0.1 µM
//
COMPOUND: COc1ccc(C(=O)c2cc3cc(C)n(CCCCl)c3s2)c(Cl)c1 [Compound 85]
MEASURED_ON: recombinant human cannabinoid receptor CB1 (Homo sapiens)
TEST_RESULT: 1 to 10 µM
//
COMPOUND: Cc1cc2cc(C(=O)c3ccc(F)cc3F)sc2n1CCN1CCOCC1 [Compound 135]
MEASURED_ON: recombinant human cannabinoid receptor CB1 (Homo sapiens)
TEST_RESULT: 1 to 10 µM

Provenance of the data: patent US20130029970A1
